Where do these numbers come from? They come from paper PMC7060403.

Target: T1, full-length rabies virus phosphoprotein (RavP-FL, residues 1-297) (rabies virus, UniProt P22363 1-297)
T1 sequence: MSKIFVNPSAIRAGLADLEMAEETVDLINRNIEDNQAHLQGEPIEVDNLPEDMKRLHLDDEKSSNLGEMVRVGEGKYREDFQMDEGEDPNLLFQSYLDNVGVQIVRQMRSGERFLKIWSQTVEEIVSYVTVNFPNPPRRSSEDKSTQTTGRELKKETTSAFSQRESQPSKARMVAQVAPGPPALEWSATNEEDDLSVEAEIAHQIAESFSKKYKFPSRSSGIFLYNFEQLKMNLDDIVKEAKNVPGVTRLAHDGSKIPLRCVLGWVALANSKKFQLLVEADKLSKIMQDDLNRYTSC
Assay: ITC
Assay Endpoint: Kd

The binder LC8 from Drosophila melanogaster (natural protein, UniProt Q24117 1-89, looked up) MSDRKAVIKNADMSEEMQQDAVDCATQALEKYNIEKDIAAYIKKEFDKKYNPTWHCIVGRNFGSYVTHETRHFIYFYLGQVAILLFKSG showed Kd equal to 82 nM
